Test system: Mye-BP RUNX1 p.R107C
EXPERIMENTAL PROTOCOL: drug sensitivity score (DSS) (DSS score); higher = more sensitive (stronger growth inhibition); extreme values may be limits of the assay
Think of 3 as a floor: if drug sensitivity score stands on it or above, it is class 1; beneath it, class 0.

Examples with answers:
COMPOUND | GROUP
CN(C)C/C=C/C(=O)Nc1cc2c(Nc3ccc(F)c(Cl)c3)ncnc2cc1O[C@H]1CCOC1 | class 0
CC[C@]1(O)C[C@@H]2CN(CCc3c([nH]c4ccccc34)[C@@](C(=O)OC)(c3cc4c(cc3OC)N(C)[C@H]3[C@@](O)(C(=O)OC)[C@H](OC(C)=O)[C@]5(CC)C=CCN6CC[C@]43[C@@H]65)C2)C1 | class 1
CC1=C(/C=C/C(C)=C/C=C/C(C)=C/C(=O)O)C(C)(C)CCC1 | class 0
CN(C)CCN1C(=O)c2cccc3cc(N)cc(c23)C1=O [Amonafide] | class 1
CS(=O)(=O)OCCCCOS(C)(=O)=O | class 0
C[C@H]1C[C@@H]2[C@H]([C@@H](O)C[C@@]3(C)[C@H]2CC[C@]3(O)C(=O)CO)[C@@]2(C)C=CC(=O)C=C12 | class 1

Next, consider the following compound.
Is reported drug sensitivity score greater than or equal to 3 here: `CC[C@@]1(O)C(=O)OCc2c1cc1n(c2=O)Cc2cc3c(CN(C)C)c(O)ccc3nc2-1`
class 1
